Hello, the source for this data is patent US8318949B2, in case you need it.

Please respond with reported melting point for every item in the list.

Illustrative cases are given below, each with its answer.
INSERT INTO results (molecule, result) VALUES
  ('Cc1nc(N2C(=O)N(Cc3ccc(F)cc3)C[C@H]2C)sc1C(=O)NCc1ccccn1', '55 to 57 °C'),
  ('Cc1csc(CNC(=O)c2sc(N3CCN(CC4CC4(F)F)C3=O)nc2C)n1 (stereo not drawn)', '157 to 159 °C'),
  ('Cc1cc(CNC(=O)c2sc(N3CCN(Cc4ccc(F)cc4)C3=O)nc2C)[nH]n1', '225 to 226 °C'),
  ('Cc1nc(N2C[C@@H](C)N(Cc3ccc(F)cc3)C2=O)sc1C(=O)NCc1cc(F)cc(F)c1', '159 to 160 °C');

Field: melting point. Fill in for each record below.
1. Cc1cc(CNC(=O)c2sc(N3C[C@@H](C)N(Cc4ccc(F)cc4)C3=O)nc2C)no1
2. Cc1nc(-n2cnn(CC3CC3)c2=O)sc1C(N)=O
3. C=CCCN1CCN(c2nc(C)c(C(=O)NCc3cccnc3)s2)C1=O
4. Cc1nc(N2CCN(Cc3cc(F)cc(F)c3)C2=O)sc1C(N)=O
5. Cc1nc(-n2cnn(Cc3ccc(F)cc3)c2=O)sc1-c1nn[nH]n1
6. Cc1nc(N2CCN(CC3CC3(F)F)C2=O)sc1C(=O)NCc1cccnc1 (stereo not drawn)

["139 to 140 °C", "180 to 181 °C", "144 to 145 °C", "> 200 °C", "136 to 139 °C", "169 to 171 °C"]

Take each entry in turn and give its melting point.
1. Cc1nc(N2C[C@@H](C)N(Cc3ccc(F)cc3)C2=O)sc1C(N)=O
2. Cc1nc(N2CCN(CC3CC3(F)F)C2=O)sc1-c1cc[nH]n1 (stereo not drawn)
3. Cc1cncc(CNC(=O)c2sc(N3CCN(CC(C)C)C3=O)nc2C)n1
4. Cc1nc(N2C[C@@H](C)N(Cc3ccc(F)cc3)C2=O)sc1C(=O)NCc1cncs1
5. Cc1nc(N2C[C@H](C)N(Cc3ccc(F)cc3)C2=O)sc1C(N)=O
6. Cc1nc(N2C[C@H](C)N(Cc3ccc(F)cc3)C2=O)sc1C(=O)NCc1cccnc1

185 to 186 °C
227 to 230 °C
139 to 142 °C
66 to 69 °C
192 to 194 °C
67 to 70 °C
